Tested on: UV-induced CUL4-dependent DDB2 degradation in MEF-F-DDB2 cells
Assay: Cell-based assay for inhibition of UV-induced CUL4-dependent DDB2 degradation; note: test concentration or dose not given here
Set-up: key: (+) means that the normalized DDB2/α-tubulin ratio is higher in the compound treated sample than DMSO treated sample; (−) means that no change happens between compound treated sample with control sample
Details: DDB2/α-tubulin by Western blot
reported-endpoint: Degradation Inhibition (inhibition of UV-induced DDB2 degradation)

compound	observed-measurement
O=C(O)c1cc2c([nH]c3cc(F)ccc32)c(-c2ccc(OCc3ccncn3)cc2)n1 [PA1-11L]	−
N#Cc1ccc(-c2nc(C(=O)O)cc3c2[nH]c2ccccc23)cc1 [PA19]	+
COC(=O)c1ccc(-c2nc(C(=O)O)cc3c2[nH]c2ccccc23)cc1 [PA20]	+
COC(=O)c1cccc(-c2nc(C(=O)O)cc3c2[nH]c2ccccc23)c1 [PA24]	+
O=C(O)c1cc2c([nH]c3cc(F)ccc32)c(-c2ccc(OCc3ccccc3)cc2)n1 [PA1-11]	−
NC(=O)c1cc2c([nH]c3ccccc32)c(-c2ccc([N+](=O)[O-])cc2)n1 [PA9]	+
O=C(O)c1cc2c([nH]c3cc(F)ccc32)c(-c2ccc(OCCc3ccccc3)cc2)n1 [PA1-11B]	−
COC(=O)c1cc2c([nH]c3cccc(F)c32)c(-c2ccc(N(C)S(=O)(=O)c3ccccc3)cc2)n1 [PA99-1]	+
O=C(O)c1cc2c([nH]c3ccccc32)c(-c2cccnc2)n1 [PA25]	+
CN(c1ccc(-c2nc(C(=O)O)cc3c2[nH]c2ccc(F)cc23)cc1)S(=O)(=O)c1ccc(Br)cc1 [PA2-4]	+
Cc1ccc(-c2nc(C(=O)O)cc3c2[nH]c2ccccc23)cc1 [PA2]	+
O=C(O)c1cc2c([nH]c3cc(F)ccc32)c(-c2ccc(OCC3CCCCC3)cc2)n1 [PA1-11D]	−
Cc1cc(N(C)S(=O)(=O)c2ccccc2)ccc1-c1nc(C(=O)O)cc2c1[nH]c1cc(F)ccc12 [PA1-12A]	−
CS(=O)(=O)N(Cc1ccccc1)c1ccc(-c2nc(C(=O)O)cc3c2[nH]c2ccccc23)cc1 [PA76]	+
CN1CCN(S(=O)(=O)N(C)c2ccc(-c3nc(C(=O)O)cc4c3[nH]c3cc(F)ccc34)cc2)CC1 [PA1-13A-3]	−
O=C(O)c1cc2c([nH]c3cc(F)ccc32)c(-c2ccc(OCc3cccnc3)cc2)n1 [PA1-11G]	−
CN(c1ccc(-c2nc(C(=O)O)cc3c2[nH]c2c(F)cccc23)cc1)S(=O)(=O)c1ccccc1 [PA1-4]	−
CN(c1ccc(-c2nc(C(=O)O)cc3c2[nH]c2ccc(F)cc23)cc1)S(=O)(=O)c1cccnc1 [PA2-6]	−
O=C(O)c1cc2c([nH]c3cc(F)ccc32)c(-c2ccc(OCc3cscn3)cc2)n1 [PA1-11K]	−
CN(c1ccc(-c2nc(C(=O)O)cc3c2[nH]c2cc(C#N)ccc23)cc1)S(=O)(=O)c1ccccc1 [PA1-9]	+
Cc1ccc2[nH]c3c(-c4ccc(S(C)(=O)=O)cc4)nc(C(=O)O)cc3c2c1 [PA72]	−
O=C(O)c1cc2c([nH]c3cc(F)ccc32)c(-c2ccc(OCCCc3ccccc3)cc2)n1 [PA1-11C]	−
O=C(O)c1cc2c([nH]c3cc(F)ccc32)c(-c2ccc(OCn3cncn3)cc2)n1 [PA1-11M]	−
CN1CCN(c2ccc(S(=O)(=O)N(C)c3ccc(-c4nc(C(=O)O)cc5c4[nH]c4cc(F)ccc45)cc3)cc2)CC1 [PA1-13A-7]	−
COc1ccc(-c2ccc(-c3nc(C(=O)O)cc4c3[nH]c3ccccc34)cc2)cc1 [PA60]	−
O=C(O)c1cc2c([nH]c3cc(F)ccc32)c(-c2ccc(Oc3ccccc3)cc2)n1 [PA1-11A]	−
O=C(O)c1cc2c([nH]c3cc(F)ccc32)c(-c2ccc(OCC3CCOCC3)cc2)n1 [PA1-11E]	−
CN(c1ccc(-c2nc(C(=O)O)cc3c2[nH]c2ccc(F)cc23)cc1)S(=O)(=O)c1ccc(F)cc1 [PA2-3]	−
COC(=O)c1cc2c([nH]c3ccc(F)cc32)c(-c2ccc(N(C)S(=O)(=O)c3ccccc3)cc2)n1 [PA93-1]	−
CS(=O)(=O)c1ccc(-c2nc(C(=O)O)cc3c2[nH]c2ccc(F)cc23)cc1 [PA71]	−
COc1ccc2[nH]c3c(-c4ccc(S(C)(=O)=O)cc4)nc(C(=O)O)cc3c2c1 [PA74]	+
CN(c1ccc(-c2nc(C(=O)O)cc3c2[nH]c2cc(F)ccc23)c(F)c1)S(=O)(=O)c1ccccc1 [PA1-12]	+
COC(=O)c1cc2c([nH]c3cc(F)cc(C)c32)c(-c2ccc(N(C)S(=O)(=O)c3ccccc3)cc2)n1 [PA1-14 ESTER]	−

All figures here come from patent US20250188078A1.
